Cited source: patent US20080032921A1

target: purified HLA DRB1*0401 (human); assay: competition with 125I-labelled peptide for purified HLA
Hi there, I'd appreciate the recorded IC50 for every entry that follows.
Enter your answer as a number in nM; do not include the unit.

Q) Request the reported IC50 associated with YIQMCTELKLSDYEG (modifications not checked) [Flu.NP.43 peptide …]
A) 392

Q) Request the reported IC50 associated with IYQILSIYSTVASSLA (modifications not checked) [Flu.HA.529 peptide …]
A) 89

Q) Request the reported IC50 associated with SLMLQIGNMISIWVSHS (modifications not checked) [Flu.NA.21 peptide …]
A) 480

Q) Request the reported IC50 associated with ILSIYSTVASSLALAI (modifications not checked) [Flu.HA.532 peptide …]
A) 91
